Source of measurements: patent US20140011799A1

Quick reference: IC50 of the listed items.
- tested.system: Endothelial lipase (EL) (Homo sapiens)
- Construct: HT-1080 cells that were transformed using RAGE technology (Athersys) to overexpress endogenous EL; endogenous in cells; conditioned medium used
- test: Endothelial lipase (EL) enzymatic assay, fluorescent substrate A10070 in DMPG vesicles
- Format: biochemical
- stated.conditions: EL from conditioned media of HT-1080 cells; compound preincubated 30 min at 37° C; read-out: EL IC50

{"molecule": "CS(=O)(=O)C(c1nnc(CC2SC(=O)NC2=O)o1)c1nc2ccc(-c3ccccc3)cc2s1 (stereo not shown)", "measurement": "< 10 nM"}
{"molecule": "CC1(Cc2nnc(Cc3nc4ccc(-c5ccccc5)cc4s3)o2)NC(=O)N(CC(F)(F)F)C1=O (single isomer, unassigned; isomer b)", "measurement": "< 10 nM"}
{"molecule": "CS(=O)(=O)C(c1nnc(CNS(N)(=O)=O)o1)c1nc2ccc(-c3ccc(C(=O)NCC(F)(F)F)cc3)cc2s1 (stereo not shown)", "measurement": "< 10 nM"}

Note: attention shifts to another entry.
// Input: Cn1cc(-c2ccc3nc(C(c4nnc(CNS(N)(=O)=O)o4)S(=O)(=O)CCC(=O)O)sc3c2)cn1 (stereo not shown) . Output its IC50 only. 11 nM

* * *

Recorded pIC50, one value per entry.
- tested.system: hepatic lipase (HL) (Homo sapiens, UniProt P11150)
- Construct: made in house; host or cells: COS cells (conditioned medium, partially purified)
- Sequence (P11150 23-499): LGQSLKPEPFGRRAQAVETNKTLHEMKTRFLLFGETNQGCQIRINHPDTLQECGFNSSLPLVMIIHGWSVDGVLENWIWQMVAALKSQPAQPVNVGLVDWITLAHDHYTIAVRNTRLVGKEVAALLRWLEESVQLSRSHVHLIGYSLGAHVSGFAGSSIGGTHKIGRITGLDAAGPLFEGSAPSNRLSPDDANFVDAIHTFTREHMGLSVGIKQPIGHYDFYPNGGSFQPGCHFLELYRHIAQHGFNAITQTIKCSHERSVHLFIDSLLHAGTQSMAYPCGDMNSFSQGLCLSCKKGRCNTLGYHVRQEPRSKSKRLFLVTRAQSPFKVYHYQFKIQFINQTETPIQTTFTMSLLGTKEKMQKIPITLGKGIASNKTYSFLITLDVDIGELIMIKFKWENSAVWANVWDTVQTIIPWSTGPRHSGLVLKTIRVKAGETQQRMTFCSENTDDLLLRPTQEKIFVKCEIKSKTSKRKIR
- test: Hepatic lipase (HL) enzymatic assay, fluorescent substrate A10070 in DMPG vesicles
- Assay type: biochemical
- stated.conditions: HL partially purified from conditioned media of COS cells; compound preincubated 30 min at 37° C; read-out: HL IC50
Note on pIC50: it is the negative log10 of concentration, concentration in mol/L.

{"molecule": "CC(C)(C)OC(=O)NS(=O)(=O)NCc1nnc(C(c2nc3ccc(-c4cncnc4)cc3s2)S(=O)(=O)Cc2ccccc2)o1 (stereo not drawn)", "pIC50": 5.18}

Return pIC50 (reported value) for this molecule: CC1(Cc2nnc(C(c3nc4ccc(-c5cccc(C(=O)N6CC[C@H](O)C6)c5)cc4s3)S(C)(=O)=O)o2)NC(=O)NC1=O (stereo partly drawn) 6.43

Tell me pIC50 reported for COCc1ccc(-c2ccc3nc(C(c4nnc(CNS(N)(=O)=O)o4)S(=O)(=O)Cc4cc(Cl)cc(Cl)c4)sc3c2)cc1 (stereo not drawn) 8.22

Tell me its pIC50 given CC(O)CCNC(=O)Cc1nnc(C(c2nc3ccc(-c4ccc(C(=O)N5CCOCC5)cc4)cc3s2)S(C)(=O)=O)o1 (stereo not drawn) as the entry. 6.33

Give me measured pIC50, please, for this molecule: CC1(Cc2nnc(C(c3nc4ccc(-c5cccc(C(=O)N6CC[C@H](F)C6)c5)cc4s3)S(C)(=O)=O)o2)NC(=O)NC1=O (stereo partly drawn) 6.77

Answer with the recorded pIC50 for the molecule listed here: C#CCNC(=O)c1cccc(-c2ccc3nc(C(c4nnc(CNS(N)(=O)=O)o4)S(C)(=O)=O)sc3c2)c1 (stereo not drawn) 7.72

// Input: CS(=O)(=O)C(c1nnc(CNS(N)(=O)=O)o1)c1nc2ccc(-c3cccc(C(=O)Nc4nnc(C(F)(F)F)o4)c3)cc2s1 (stereo not drawn) . Output its pIC50 only. 7.21

Supply pIC50 value. Item: COCc1ccc(-c2ccc3nc(C(c4nnc(CNS(N)(=O)=O)o4)S(=O)(=O)Cc4ccccc4F)sc3c2)cc1 (stereo not drawn) 8.52

For the molecule CN1CCN(C(=O)c2cccc(-c3ccc4nc(C(c5nnc(CNS(N)(=O)=O)o5)S(=O)(=O)CC5CC5)sc4c3)c2)CC1 (stereo not drawn) , report pIC50. 5.59

Please list pIC50 recorded for the molecule CC1(Cc2nnc(C(c3nc4ccc(-c5cccc(C(=O)N6CC(F)(F)C6)c5)cc4s3)S(C)(=O)=O)o2)NC(=O)NC1=O (stereo not drawn) 6.88

Answer with the recorded pIC50 for the molecule listed here: NS(=O)(=O)NCc1nnc(C(c2nc3ccc(-c4ccc(C(=O)N5CCOCC5)c(Cl)c4)cc3s2)S(=O)(=O)Cc2ccccc2)o1 (stereo not drawn) 6.92

Please supply the value of reported pIC50 for the item C=CCS(=O)(=O)C(c1nnc(CNS(N)(=O)=O)o1)c1nc2ccc(-c3ccc(C(=O)N4CCOCC4)cc3)cc2s1 (stereo not drawn) 6.25

Entry CS(=O)(=O)C(c1nnc(CNS(N)(=O)=O)o1)c1nc2cc(-c3ncccn3)ccc2s1 (stereo not drawn) needs its pIC50 filled in; supply it. 8.22

Please report pIC50 for the following molecule: CCOCC(=O)NCc1nnc(C(c2nc3ccc(-c4ccccc4)cc3s2)S(C)(=O)=O)o1 (stereo not drawn) 7.47

Fill in reported pIC50 for this entry: NCCS(=O)(=O)C(c1nnc(CC2SC(=O)NC2=O)o1)c1nc2cc(F)c(-c3ccccc3)cc2s1 (stereo not drawn) 7.31

State its pIC50: NS(=O)(=O)NCc1nnc(C(c2nc3ccc(-c4ccc(F)nc4)cc3s2)S(=O)(=O)Cc2ccc(OC(F)(F)F)cc2)o1 (stereo not drawn) 8.05

Using the record for C[C@]1(Cc2nnc(C(c3nc4ccc(-c5ccc(C(=O)N6CCOCC6)cc5)cc4s3)S(C)(=O)=O)o2)OC(=O)NC1=O (stereo partly drawn) , state its measured pIC50. 6.12

Look up and state reported pIC50 for COCc1ccc(-c2ccc3nc(C(c4nnc(CNS(N)(=O)=O)o4)S(=O)(=O)Cc4cccc(F)c4)sc3c2)cc1 (stereo not drawn) 9.00

State its pIC50: Cn1cc(-c2cc3sc(C(c4nnc(CNC(=O)OC(C)(C)C)o4)S(=O)(=O)Cc4ccccc4)nc3cc2F)cn1 (stereo not drawn) 7.49

Could you please provide reported pIC50 for COCc1ccc(-c2ccc3nc(C(c4nnc(CNS(N)(=O)=O)o4)S(=O)(=O)Cc4ccc(OC(F)(F)F)cc4)sc3c2)cc1 (stereo not drawn) ? Thanks! 8.70

Give pIC50 for Cn1ccc(-c2ccc3sc(C(c4nnc(CNS(N)(=O)=O)o4)S(C)(=O)=O)nc3c2)cc1=O (stereo not drawn) 7.14

Give me measured pIC50, please, for this molecule: CS(=O)(=O)C(c1nnc(CNS(N)(=O)=O)o1)c1nc2ccc(-c3cccc(C(=O)Nc4nncs4)c3)cc2s1 (stereo not drawn) 7.80

* * *

- tested.system: Endothelial lipase (EL) (Homo sapiens, UniProt Q9Y5X9)
- Construct: HT-1080 cells that were transformed using RAGE technology (Athersys) to overexpress endogenous EL; endogenous in cells; conditioned medium used
- Sequence (Q9Y5X9 21-500): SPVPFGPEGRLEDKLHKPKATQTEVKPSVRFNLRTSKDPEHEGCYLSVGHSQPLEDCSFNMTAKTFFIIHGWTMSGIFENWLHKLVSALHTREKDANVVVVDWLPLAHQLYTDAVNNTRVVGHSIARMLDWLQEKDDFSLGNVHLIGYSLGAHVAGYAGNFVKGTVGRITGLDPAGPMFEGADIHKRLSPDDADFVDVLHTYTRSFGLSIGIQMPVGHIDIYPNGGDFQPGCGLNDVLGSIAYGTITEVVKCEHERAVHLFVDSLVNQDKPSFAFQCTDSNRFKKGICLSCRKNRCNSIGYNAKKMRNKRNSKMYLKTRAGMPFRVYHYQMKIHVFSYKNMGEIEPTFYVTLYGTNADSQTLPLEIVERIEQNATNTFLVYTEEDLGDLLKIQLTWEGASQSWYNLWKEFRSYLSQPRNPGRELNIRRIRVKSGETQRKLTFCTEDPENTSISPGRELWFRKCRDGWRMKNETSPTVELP
- test: Endothelial lipase (EL) enzymatic assay, fluorescent substrate A10070 in DMPG vesicles
- Assay type: biochemical
- stated.conditions: EL from conditioned media of HT-1080 cells; compound preincubated 30 min at 37° C; read-out: EL IC50
measured.parameter: IC50

{"compound": "C=CCS(=O)(=O)C(c1nnc(CNS(N)(=O)=O)o1)c1nc2ccc(-c3ccccc3)cc2s1 (stereo not shown) [Example 120]", "tested.system": "Endothelial lipase (EL) (Homo sapiens, UniProt Q9Y5X9)", "IC50": "< 10 nM"}
{"compound": "CC(C)S(=O)(=O)C(c1nnc(CNS(N)(=O)=O)o1)c1nc2ccc(-c3ccccc3)cc2s1 (stereo not shown) [Example 49]", "tested.system": "Endothelial lipase (EL) (Homo sapiens, UniProt Q9Y5X9)", "IC50": "< 10 nM"}
{"compound": "COc1nc(-c2nnc(C(c3nc4ccc(-c5ccc(F)cc5)cc4s3)S(C)(=O)=O)o2)c(O)c(=O)[nH]1 (stereo not shown) [Example 43]", "tested.system": "Endothelial lipase (EL) (Homo sapiens, UniProt Q9Y5X9)", "IC50": "14 nM"}

Please look at this compound and report its IC50: COc1cc(-c2ccc3nc(C(c4nnc(CNS(N)(=O)=O)o4)S(C)(=O)=O)sc3c2)ccn1 (stereo not shown) [Example 131] < 10 nM

Quote IC50 reported for Cn1ccc(-c2ccc3sc(C(c4nnc(CNS(N)(=O)=O)o4)S(C)(=O)=O)nc3c2)cc1=O (stereo not shown) [Example 245] please. 8 nM

Annotate the compound NS(=O)(=O)NCc1nnc(C(c2nc3ccc(-c4ccccc4)cc3s2)S(=O)(=O)Cc2cccc(F)c2)o1 (stereo not shown) [Example 56] with its measured IC50. < 10 nM

Please indicate IC50 recorded for CS(=O)(=O)C(c1nnc(CS(=O)(=O)O)o1)c1nc2ccc(-c3ccccc3)cc2s1 (stereo not shown) [Example 28] < 10 nM
